# System: Methicillin sensitive Staphylococcus aureus ATCC 29213
# assayDetails: CIM antibacterial activity screening (broth microdilution)
# Type: cell-based
# conditionParameters: ATCC29213; Methicillin sensitive Staphylococcus aureus ATCC 29213; read-out: CIM
readoutName: MIC

structureassmiles=CCc1nc2c(c3c1C(=O)C=CC3=O)c(=O)n(C)c(=O)n2C readoutvalue="≥ 32 µg/mL"
structureassmiles=CCc1nc2c(c3c1C(=O)C(Sc1ccccc1F)=CC3=O)c(=O)n(C)c(=O)n2C readoutvalue="≥ 32 µg/mL"
structureassmiles=CCc1nc2c(c3c1C(=O)C(Sc1ccc(C)cc1)=CC3=O)c(=O)n(C)c(=O)n2C readoutvalue="4 µg/mL"
